We begin with pIC50 values for UniProt:P09237, as collected from the published literature.
Answer as the number alone; pIC50 is minus log10 of concentration in mol/L.

Below, each entry is followed by its recorded pIC50 result.
INSERT INTO assay_data (compound, endpoint_result) VALUES
  ('Cc1cccc(COc2ccc(C(=O)[C@@H]3CC[C@H](Cn4nnc5ccc(C)cc5c4=O)[C@H]3C(=O)O)cc2)c1 (single isomer, unassigned)', 6.48),
  ('CC(C)[C@H](NS(=O)(=O)c1ccc2c(c1)Sc1ccccc1O2)C(=O)O', 5.17),
  ('O=C(O)[C@H]1[C@H](Cn2nnc3ccccc3c2=O)CC[C@@H]1C(=O)c1ccc(OCc2ccccc2)cc1 (racemic)', 6.30),
  ('O=C(O)[C@H]1[C@H](Cn2nnc3ccc(C(F)(F)F)cc3c2=O)CC[C@@H]1C(=O)c1ccc(OCC2CCOCC2)cc1 (racemic)', 6.89);

Turning now to a further record.
Reported pIC50 of O=C(O)[C@H]1[C@H](Cn2nnc3ccccc3c2=O)CC[C@@H]1C(=O)c1ccc(OCCC2CCOCC2)cc1 (stereo in doubt) : 5.49
